Test system: HOP-92 NSCLC
test.description: NCI tumour cell line growth inhibition, 48 h
Use Condition met when the recorded TGI is no lower than 40 µM; use Condition not met when it is lower.

COc1cc2nc(-c3ccc(Cl)cc3)cc(OCCCN3CCC(O)CC3)c2cc1OC
Condition not met
O=C1C(c2c(O)n(-c3ccccc3)c3ccccc23)=Nc2ccccc21
Condition met
COc1ccc(C=O)c(N(C)C(=O)C(C)(C)C)c1
Condition met
Nc1cccc2cc(S(=O)(=O)Nc3ccc(C(=O)O)cc3)ccc12
Condition met
COC(=O)C(NC(=O)C12CCC(C)(C(=O)O1)C2(C)C)c1cc(C(C)(C)C)c(O)c(C(C)(C)C)c1 (centres undefined)
Condition met

Determine whether this molecule has TGI no lower than 40 µM: CC1(C)CC[C@]2(C(=O)O)CCC3(C)C(=CCC4[C@@]5(C)CC[C@H](OC6OCC(O)C(O)C6OC6OC(CO)C(O)C(O)C6O)C(C)(C)C5CC[C@]43C)C2C1 (some centres undefined)
Condition not met

Do the same for COc1ccc(C(c2ccccc2)N2C(=O)CCC2C(=O)O)cc1OC (centres undefined) please
Condition met

Do the same for CCC1c2[nH]c3ccccc3c2C[C@H]2C(=O)NC(Cc3ccccc3)C(=O)N12 (some centres undefined) please
Condition met
